Molecular target: GluA1o-γ8 (Homo sapiens (Human), UniProt P42261+Q8WXS5)
Sequence (P42261 other isoform, or with tags, fused parts or gaps): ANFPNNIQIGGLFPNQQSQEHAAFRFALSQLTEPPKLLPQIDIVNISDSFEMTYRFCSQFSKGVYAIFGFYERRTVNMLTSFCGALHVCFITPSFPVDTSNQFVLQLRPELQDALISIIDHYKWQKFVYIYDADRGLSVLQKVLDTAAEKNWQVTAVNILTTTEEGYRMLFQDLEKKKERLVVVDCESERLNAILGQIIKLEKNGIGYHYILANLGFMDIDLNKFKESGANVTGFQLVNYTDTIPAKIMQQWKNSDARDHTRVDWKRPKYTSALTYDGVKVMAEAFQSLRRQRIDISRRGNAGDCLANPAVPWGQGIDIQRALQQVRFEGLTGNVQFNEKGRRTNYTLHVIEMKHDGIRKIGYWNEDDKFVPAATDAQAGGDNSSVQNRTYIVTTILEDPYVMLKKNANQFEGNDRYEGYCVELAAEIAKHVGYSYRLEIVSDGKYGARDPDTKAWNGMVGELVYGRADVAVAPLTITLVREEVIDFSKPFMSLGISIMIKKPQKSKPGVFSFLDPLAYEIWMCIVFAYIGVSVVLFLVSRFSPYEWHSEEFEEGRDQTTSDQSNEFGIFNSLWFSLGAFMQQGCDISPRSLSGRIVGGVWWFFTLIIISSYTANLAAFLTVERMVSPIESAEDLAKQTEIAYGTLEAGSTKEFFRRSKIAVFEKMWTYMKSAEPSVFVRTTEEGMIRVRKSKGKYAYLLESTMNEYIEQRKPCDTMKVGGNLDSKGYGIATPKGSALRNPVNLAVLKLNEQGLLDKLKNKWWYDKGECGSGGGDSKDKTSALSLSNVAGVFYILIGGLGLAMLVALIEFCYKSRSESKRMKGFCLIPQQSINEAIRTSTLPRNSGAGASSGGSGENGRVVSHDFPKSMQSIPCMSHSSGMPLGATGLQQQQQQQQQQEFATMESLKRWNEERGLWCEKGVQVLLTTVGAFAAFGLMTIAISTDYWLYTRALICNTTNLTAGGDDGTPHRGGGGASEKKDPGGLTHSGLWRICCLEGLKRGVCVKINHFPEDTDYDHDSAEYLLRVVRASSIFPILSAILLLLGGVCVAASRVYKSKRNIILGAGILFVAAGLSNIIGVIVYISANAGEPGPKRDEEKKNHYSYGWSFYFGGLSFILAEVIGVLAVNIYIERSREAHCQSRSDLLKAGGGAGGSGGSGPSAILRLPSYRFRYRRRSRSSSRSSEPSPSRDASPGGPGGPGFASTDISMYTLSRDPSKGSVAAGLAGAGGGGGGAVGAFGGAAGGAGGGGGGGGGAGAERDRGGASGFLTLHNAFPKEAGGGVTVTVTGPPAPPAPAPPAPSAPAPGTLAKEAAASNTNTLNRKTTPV
Assay: Calcium flux assay (FLIPR), inhibition of TARP γ8 dependent AMPA receptor activity
Format: cell-based
Conditions: HEK293 cells stably expressing GRIA1o-CACNG8 fusion construct; calcium flux following 15 μM glutamate; negative log of IC50 in molar
testReadout: pIC50
Output: the number by itself.

smilesData: Cc1nc(C2CC2)c(-c2cc(Cl)c3[nH]ncc3c2)c2nc(C(F)F)cn12
resultNumber: 9.2
--
smilesData: CCc1ncn2cc(C(F)F)nc2c1-c1cc(Cl)c2[nH]ncc2c1
resultNumber: 8.9

q: Find the recorded pIC50 belonging to CCc1cn2cnc(C(F)(F)F)c(-c3cc(C)c4[nH]ncc4c3)c2n1 and report it.
a: 8.8
